Source: PubChem BioAssay

- ASSAY INFO: reduction of polyQ htt aggregates in cells – imaging, exon1htt(103Q)mCFP cells, high-content imaging, primary screen (AID 483);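 note: compound exposure lasted 3 days before fixation; percent of the per-plate median nuclei count of sample wells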
- STATED CONDITIONS: exon1htt(103Q)mCFP cell line, aggregate imaging, at 2 µM; measured here: cell count, toxicity
nuclei count by entry:

{"MOLECULE": "O=C(O)c1cc(Cl)c(Cl)cc1C(=O)N1CCCC1", "UNITS OF MEASURE": "%", "nuclei count": 88.1}
{"MOLECULE": "COc1ccc(N2CCN(CCCNC(=O)C3CCCN(S(=O)(=O)c4cnc[nH]4)C3)CC2)cc1 (stereo not drawn)", "UNITS OF MEASURE": "%", "nuclei count": 89.3}
{"MOLECULE": "COc1ccccc1N(CC(=O)Nc1cccnc1)S(C)(=O)=O", "UNITS OF MEASURE": "%", "nuclei count": 92.6}
